Sourced from patent US20220033483A1

Biological target: T1, cTnI quality control product recombinant protein (human, UniProt P19429 1-210, limits assumed)
T1 construct: the assay paragraphs only say cTnI; also called cardiac troponin I; cTnI antigen
T1 sequence (P19429 whole entry): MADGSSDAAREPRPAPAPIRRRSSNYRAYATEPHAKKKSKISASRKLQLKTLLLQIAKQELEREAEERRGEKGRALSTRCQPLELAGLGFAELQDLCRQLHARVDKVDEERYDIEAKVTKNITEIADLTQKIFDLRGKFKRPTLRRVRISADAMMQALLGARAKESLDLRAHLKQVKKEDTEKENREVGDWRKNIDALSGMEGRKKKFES
Assay: AMC biosensor, antibody on sensor
reportedEndpoint: kon (M⁻¹ s⁻¹)
Report as a plain number; the unit M⁻¹ s⁻¹ is understood.

Some solved entries appear below for comparison.
• Mutation 4 (antibody, V domains shown, other CDR sites as WT) VH: QVQLQQSGTELAKPGASVKFSCKASNYTFSTYWMYWIKQRPGQGLEWIGYLNPSSGHTKYNQRFKDKATLTADKSSSTAYMQLNSLTSEDSAVYYCARKYFGPFNMDYWGQGTSVTVSS VL: EIFLTQSPAIMSASPGEKVTMTCSASTTVSYEHWYQQKSGTSPKRWLYDQSKIASGIPVRFSGSGSGTSYSLTISSMEAEDAATYYCQVWSTQPYTFGGGTKLEIKR = 654
• Mutation 2 (antibody, V domains shown, other CDR sites as WT) VH: QVQLQQSGTELAKPGASVKFSCKASLYTFSTYWMYWIKQRPGQGLEWIGYLNPSSGHTEYNQRFKDKATLTADKSSSTAYMQLNSLTSEDSAVYYCARKYFGPFIMDYWGQGTSVTVSS VL: EIFLTQSPAIMSASPGEKVTMTCSASTTVSYAHWYQQKSGTSPKRWLYDTSKIASGIPVRFSGSGSGTSYSLTISSMEAEDAATYYCQVWSTQPYTFGGGTKLEIKR = 27800

Now for a further binder.
q: State the recorded kon for this entry: Anti-cTnI 7B9 monoclonal antibody (recombinant, Sample 1) (antibody, mouse IgG1, kappa, V domains shown, Recombinant mouse antibody expressed in CHO cells; also called WT; Anti-cTnI 7B9 antibody) VH: QVQLQQSGTELAKPGASVKFSCKASDYTFSTYWMYWIKQRPGQGLEWIGYLNPSSGHTEYNQRFKDKATLTADKSSSTAYMQLNSLTSEDSAVYYCARKYFGPFAMDYWGQGTSVTVSS VL: EIFLTQSPAIMSASPGEKVTMTCSASTTVSYAHWYQQKSGTSPKRWLYDSSKIASGIPVRFSGSGSGTSYSLTISSMEAEDAATYYCQNWSTQPYTFGGGTKLEIKR
a: 28600
